Each recorded value in this set is attributed to ChEMBL document CHEMBL3098060.

# System: MCF7
# ASSAY_REMARKS: Cytotoxicity against human MCF7 cells after 72 hrs by MTT assay
# Type: functional, cell-based
# APPLIED_CONDITIONS: MCF7, 72 h
Reported IC50 is given for each of the following compounds.

COMPOUND	CENSORING_QUALIFIER	IC50 / µM
CC(C)[C@@H]1NC(=O)[C@H](C)OC(=O)[C@@H](C(C)C)NC(=O)[C@@H](C(C)C)OC(=O)[C@H](C(C)(C)O)NC(=O)[C@H](C)OC(=O)[C@@H](C(C)C)NC(=O)[C@@H](C(C)C)OC(=O)[C@H](C(C)C)NC(=O)[C@H](C)OC(=O)[C@@H](C(C)C)NC(=O)[C@@H](C(C)C)OC1=O	=	3.91
CC(C)[C@@H]1NC(=O)[C@H](C)OC(=O)[C@@H](C(C)C)NC(=O)[C@@H](C(C)(C)O)OC(=O)[C@H](C(C)C)NC(=O)[C@H](C)OC(=O)[C@@H](C(C)C)NC(=O)[C@@H](C(C)C)OC(=O)[C@H](C(C)C)NC(=O)[C@H](C)OC(=O)[C@@H](C(C)C)NC(=O)[C@@H](C(C)C)OC1=O	>	10
CC(C)[C@@H]1NC(=O)[C@H](C)OC(=O)[C@@H](C(C)C)NC(=O)[C@@H](C(C)C)OC(=O)[C@H](C(C)C)NC(=O)[C@H](C)OC(=O)[C@@H](C(C)C)NC(=O)[C@@H](C(C)C)OC(=O)[C@H](C(C)C)NC(=O)[C@H](C)OC(=O)[C@@H](C(C)C)NC(=O)[C@@H](C(C)C)OC1=O [VALINOMYCIN]	=	1.77
CC(C)[C@@H]1NC(=O)[C@H](C)OC(=O)[C@@H](C(C)C)NC(=O)[C@@H](C(C)C)OC(=O)[C@H](C(C)C)NC(=O)[C@H](C)OC(=O)[C@@H](C(C)(C)O)NC(=O)[C@@H](C(C)C)OC(=O)[C@H](C(C)C)NC(=O)[C@H](C)OC(=O)[C@@H](C(C)C)NC(=O)[C@@H](C(C)C)OC1=O	=	3.85
